- studyTarget: recombinant human integrin αVβ6 (Homo sapiens (Human), UniProt P06756+P18564)
- Sequence (P06756 31-992): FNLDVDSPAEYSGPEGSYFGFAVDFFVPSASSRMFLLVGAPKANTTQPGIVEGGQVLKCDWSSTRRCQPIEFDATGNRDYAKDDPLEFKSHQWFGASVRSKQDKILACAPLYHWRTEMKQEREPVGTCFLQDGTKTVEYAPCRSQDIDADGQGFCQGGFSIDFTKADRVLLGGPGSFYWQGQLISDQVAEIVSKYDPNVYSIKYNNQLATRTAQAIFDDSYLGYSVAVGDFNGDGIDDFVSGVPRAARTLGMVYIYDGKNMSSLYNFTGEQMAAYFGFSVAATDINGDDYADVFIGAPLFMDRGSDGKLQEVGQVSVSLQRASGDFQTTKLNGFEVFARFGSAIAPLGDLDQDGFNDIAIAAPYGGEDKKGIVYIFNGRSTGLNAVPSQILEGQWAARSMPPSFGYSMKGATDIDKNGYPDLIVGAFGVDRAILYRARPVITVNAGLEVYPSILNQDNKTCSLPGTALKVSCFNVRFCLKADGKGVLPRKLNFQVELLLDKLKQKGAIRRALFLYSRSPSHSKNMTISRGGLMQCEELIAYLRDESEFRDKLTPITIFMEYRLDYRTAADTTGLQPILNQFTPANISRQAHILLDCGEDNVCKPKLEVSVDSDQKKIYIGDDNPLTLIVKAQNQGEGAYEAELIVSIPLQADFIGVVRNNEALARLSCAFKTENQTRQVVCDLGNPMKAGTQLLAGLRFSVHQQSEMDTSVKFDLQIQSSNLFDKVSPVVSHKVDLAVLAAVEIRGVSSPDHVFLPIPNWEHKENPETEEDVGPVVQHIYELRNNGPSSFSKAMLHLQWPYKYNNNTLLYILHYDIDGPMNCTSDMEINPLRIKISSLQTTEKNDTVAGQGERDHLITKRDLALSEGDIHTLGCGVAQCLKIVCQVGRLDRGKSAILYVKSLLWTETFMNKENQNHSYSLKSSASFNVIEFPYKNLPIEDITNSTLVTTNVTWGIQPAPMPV
- Sequence (P18564 22-707): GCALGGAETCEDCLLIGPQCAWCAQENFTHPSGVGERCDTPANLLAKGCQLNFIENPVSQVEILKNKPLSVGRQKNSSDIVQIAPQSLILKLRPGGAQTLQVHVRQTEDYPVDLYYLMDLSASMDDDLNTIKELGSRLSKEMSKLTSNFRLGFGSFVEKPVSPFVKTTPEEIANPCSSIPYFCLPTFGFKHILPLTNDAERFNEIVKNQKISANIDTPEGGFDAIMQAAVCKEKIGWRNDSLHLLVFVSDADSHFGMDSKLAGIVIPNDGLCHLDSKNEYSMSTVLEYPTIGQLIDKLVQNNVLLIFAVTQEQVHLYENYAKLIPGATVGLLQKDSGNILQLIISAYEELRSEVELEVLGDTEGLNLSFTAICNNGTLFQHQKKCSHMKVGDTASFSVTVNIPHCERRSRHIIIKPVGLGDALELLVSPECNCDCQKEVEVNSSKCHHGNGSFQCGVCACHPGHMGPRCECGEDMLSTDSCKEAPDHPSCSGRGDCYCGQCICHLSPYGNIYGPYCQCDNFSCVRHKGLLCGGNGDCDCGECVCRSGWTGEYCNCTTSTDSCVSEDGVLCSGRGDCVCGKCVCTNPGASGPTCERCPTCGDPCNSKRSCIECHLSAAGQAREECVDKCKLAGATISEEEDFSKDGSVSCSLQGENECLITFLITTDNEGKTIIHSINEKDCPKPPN
- measurementProtocol: Solid phase integrin αVβ6 binding assay
- studyConditions: inhibition of recombinant TGFβ1 LAP binding to coated integrin, IC50 presented in four ranges, read-out: αvβ6 Inhibition IC50 (nM) - range
measureName: IC50

Hey, recombinant human integrin αVβ6 (Homo sapiens (Human), UniProt P06756+P18564) data for COCCN(CCCCc1ccc2c(n1)NCCC2)CC[C@H](Nc1ncnc2cc(C(F)(F)F)ccc12)C(=O)O : IC50 came out at 50 to 250 nM

Hey, recombinant human integrin αVβ6 (Homo sapiens (Human), UniProt P06756+P18564) data for O=C(O)[C@H](CCN(CCCCc1ccc2c(n1)NCCC2)CC(F)F)Nc1ncc(C(F)(F)F)cn1 : IC50 came out at > 1000 nM

Hey, recombinant human integrin αVβ6 (Homo sapiens (Human), UniProt P06756+P18564) data for COCCN(CCCCc1ccc2c(n1)NCCC2)CC[C@H](Nc1nc(C)nc2ccccc12)C(=O)O : IC50 came out at < 50 nM

Hey, recombinant human integrin αVβ6 (Homo sapiens (Human), UniProt P06756+P18564) data for Cc1ncccc1OCCN(CCCCc1ccc2c(n1)NCCC2)CC[C@H](Nc1ncnc2cccnc12)C(=O)O : IC50 came out at < 50 nM

Hey, recombinant human integrin αVβ6 (Homo sapiens (Human), UniProt P06756+P18564) data for Cn1ncc2c(N[C@@H](CCN(CCCCc3ccc4c(n3)NCCC4)CCOc3ccc(F)cc3)C(=O)O)ncnc21 : IC50 came out at < 50 nM

Hey, recombinant human integrin αVβ6 (Homo sapiens (Human), UniProt P06756+P18564) data for CS(=O)(=O)CCN(CCCCc1ccc2c(n1)NCCC2)CC[C@H](Nc1ncnc2[nH]ncc12)C(=O)O : IC50 came out at 50 to 250 nM

Hey, recombinant human integrin αVβ6 (Homo sapiens (Human), UniProt P06756+P18564) data for Cn1ncc2c(N[C@@H](CCN(CCCCc3ccc4c(n3)NCCC4)CCOc3ccccc3)C(=O)O)ncnc21 : IC50 came out at < 50 nM
